Every entry's value here was drawn from paper PMC7463582.

experiment: Zebrafish embryo test: lethality and dysmorphogenesis after exposure to a single oxidative stress-related compound; assay type: in vivo, Zebrafish (Danio rerio); conditions: zebrafish, in vivo; exposure window 26–50 hpf; read-out: LC50 (lethal concentration 50)

{"molecule": "Oc1c(Cl)c(Cl)c(O)c(Cl)c1Cl [Tetrachlorohydroquinone (TCHQ), Tetrachlorohydroquinone]", "u": "µM", "LC50": 16}

###

tested on: zebrafish embryos; experiment: Zebrafish embryo test: lethality and dysmorphogenesis after exposure to a single oxidative stress-related compound; format: in vivo, Zebrafish (Danio rerio); conditions: exposure window 2–26 hpf
Structures can show the parent of a compound that is named as a salt.
endpoint: MTC (maximum tolerable concentration) (µM)

{"compound": "CCCCS(=N)(=O)CCC(N)C(=O)O (racemic) [DL-buthionine sulfoximine (BSO), DL-buthionine sulfoximine]", "testedTarget": "zebrafish embryos", "reportedResult": 50}
{"compound": "CC(=O)N[C@@H](CS)C(=O)O [N-acetyl-L-cysteine (NAC), N-acetyl-L-cysteine]", "testedTarget": "zebrafish embryos", "reportedResult": 250}
{"compound": "O=c1c(O)c(-c2ccc(O)c(O)c2)oc2cc(O)cc(O)c12 [Quercetin, quercetin hydrate]", "testedTarget": "zebrafish embryos", "reportedResult": 20}
{"compound": "COC(=O)[C@@H](N)CCCNC(N)=N[N+](=O)[O-]", "testedTarget": "zebrafish embryos", "reportedResult": 5}
{"compound": "CCOC(=O)/C=C\\C(=O)OCC [Diethyl maleate (DEM), diethyl maleate]", "testedTarget": "zebrafish embryos", "reportedResult": 0.5}
